Provenance of the data: ChEMBL document CHEMBL5365531

Assay: Half life in PXB mouse at 10 mg/kg, iv measured for 24 hrs
Type: ADME, organism-based
Details: in vivo
quantity.kind: half-life (h)
Give your result in h as a bare value.

Given the compound `CC(C)(C)[C@H](NC(=O)C(F)(F)F)C(=O)N1C[C@H]2[C@@H]([C@H]1C(=O)N[C@@H](C[C@@H]1CCNC1=O)C(=O)c1nc3c(F)cccc3s1)C2(C)C` , what is its reported half-life?
1.25

---

Experiment: Half life in PXB mouse at 10 mg/kg, po measured for 24 hrs
Format: ADME, organism-based
Settings: in vivo
quantity.kind: half-life (h)
Give your result in h as a bare value.

Given the compound `CC(C)(C)[C@H](NC(=O)C(F)(F)F)C(=O)N1C[C@H]2[C@@H]([C@H]1C(=O)N[C@@H](C[C@@H]1CCNC1=O)C(=O)c1nc3c(F)cccc3s1)C2(C)C` , what is its reported half-life?
3.82
